Test system: C. krusei ATCC 6258
Assay procedure: Antifungal broth dilution assay against C. krusei (modified CLSI)
Type: cell-based, Candida krusei
Cond: C. krusei; ratio of molar IC50 to amphotericin B
Measurement type: X more potent than Amphotericin B
Give bare numbers.

// below: answered molecules
[
  {
    "Molecule": "CC(=O)[O-].F[P-](F)(F)(F)(F)F.[Zn+2].c1ccc(CN2CCN3CCCN(CC2)CCN(Cc2ccccc2)CC3)cc1 [AW041, [Zn(Bn2PBCyclen)(C2H3O2)]PF6]",
    "Measurement type": "X more potent than Amphotericin B",
    "Readout number": 0.19
  },
  {
    "Molecule": "CC(=O)[O-].CC(=O)[O-].F[P-](F)(F)(F)(F)F.F[P-](F)(F)(F)(F)F.O.[Ni+2].[Ni+2].c1cc(CN2CCNCCN3CCN(CC3)CC2)cc(CN2CCNCCN3CCN(CC3)CC2)c1 [OB35, [Ni2(m-SB-Cyclens)(OAc)2][PF6]2•H2O]",
    "Measurement type": "X more potent than Amphotericin B",
    "Readout number": 1.95
  },
  {
    "Molecule": "Cl.Cl.Cl.Cl.Cl.Cl.Cl.Cl.c1cc(CN2CCNCCCN3CCN(CC3)CC2)cc(CN2CCNCCCN3CCN(CC3)CC2)c1 [OB46B, m-SB-homocyclens HCl salt]",
    "Measurement type": "X more potent than Amphotericin B",
    "Readout number": 0.16
  },
  {
    "Molecule": "O=[N+]([O-])[O-].O=[N+]([O-])[O-].O=[N+]([O-])[O-].O=[N+]([O-])[O-].O=[N+]([O-])c1ccc(CC2CNCCN(Cc3ccc(CN4CCCN5CCN(CCCNCC4)CC5)cc3)CCCN3CCN(CC3)C2)cc1.[Ni+2].[Ni+2] (stereo not shown) [SJA236, [Ni2(bis-SB-C-Ar-NO2)(NO3)4]]",
    "Measurement type": "X more potent than Amphotericin B",
    "Readout number": 0.26
  },
  {
    "Molecule": "C[C@@H]1[C@H](O)[C@@H](C)/C=C/C=C/C=C/C=C/C=C/C=C/C=C/[C@H](O[C@@H]2O[C@H](C)[C@@H](O)[C@H](N)[C@@H]2O)C[C@@H]2O[C@](O)(C[C@@H](O)C[C@@H](O)[C@H](O)CC[C@@H](O)C[C@@H](O)CC(=O)O[C@H]1C)C[C@H](O)[C@H]2C(=O)O [AMB, Amphotericin B, reference compound]",
    "Measurement type": "X more potent than Amphotericin B",
    "Readout number": 1.00
  }
]

Give X more potent than Amphotericin B for all molecules that follow.
1. [Br-].[Br-].c1cc(C[N+]23CCCN(CCN4CCCN(CC2)C4)C3)ccc1C[N+]12CCCN(CCN3CCCN(CC1)C3)C2 [SLK17A, [p-(BMBCyclams)]Br2]
2. O=[N+]([O-])c1ccc(CC2CNCCN(Cc3ccc(CN4CCCN5CCN(CCCNCC4)CC5)cc3)CCCN3CCN(CC3)C2)cc1.[Cu+2].[Cu+2].[O-][Cl+3]([O-])([O-])[O-].[O-][Cl+3]([O-])([O-])[O-].[O-][Cl+3]([O-])([O-])[O-].[O-][Cl+3]([O-])([O-])[O-] (stereo not shown) [SJA234, [Cu2(bis-SB-C-Ar-NO2)(ClO4)4]]

1: 1.21; 2: 0.40
